The entries below are paired with their reported PBM binding z-score.
System: PPARg:RXRa 90nM:30nM, anti-RXR (NR concentration 90 nM, RXRa partner concentration 30 nM)
Assay: PBM binding z-score (relative to random genomic background probes); higher = stronger binding; sequences stand for … in GC…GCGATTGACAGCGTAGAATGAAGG

{"Sequence code": "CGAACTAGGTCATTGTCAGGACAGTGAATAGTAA", "Assay target": "PPARg:RXRa 90nM:30nM, anti-RXR (NR concentration 90 nM, RXRa partner concentration 30 nM)", "PBM binding z-score": 5.88}
{"Sequence code": "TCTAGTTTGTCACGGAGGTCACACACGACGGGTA", "Assay target": "PPARg:RXRa 90nM:30nM, anti-RXR (NR concentration 90 nM, RXRa partner concentration 30 nM)", "PBM binding z-score": 3.66}
{"Sequence code": "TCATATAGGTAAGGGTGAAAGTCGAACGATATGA", "Assay target": "PPARg:RXRa 90nM:30nM, anti-RXR (NR concentration 90 nM, RXRa partner concentration 30 nM)", "PBM binding z-score": 3.72}
{"Sequence code": "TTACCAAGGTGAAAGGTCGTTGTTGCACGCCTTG", "Assay target": "PPARg:RXRa 90nM:30nM, anti-RXR (NR concentration 90 nM, RXRa partner concentration 30 nM)", "PBM binding z-score": 8.04}
{"Sequence code": "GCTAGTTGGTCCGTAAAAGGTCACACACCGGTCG", "Assay target": "PPARg:RXRa 90nM:30nM, anti-RXR (NR concentration 90 nM, RXRa partner concentration 30 nM)", "PBM binding z-score": 2.39}
{"Sequence code": "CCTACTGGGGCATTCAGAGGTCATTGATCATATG", "Assay target": "PPARg:RXRa 90nM:30nM, anti-RXR (NR concentration 90 nM, RXRa partner concentration 30 nM)", "PBM binding z-score": 3.12}
{"Sequence code": "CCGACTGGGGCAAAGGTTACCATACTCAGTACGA", "Assay target": "PPARg:RXRa 90nM:30nM, anti-RXR (NR concentration 90 nM, RXRa partner concentration 30 nM)", "PBM binding z-score": 11.5}
{"Sequence code": "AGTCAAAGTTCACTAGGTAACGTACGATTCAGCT", "Assay target": "PPARg:RXRa 90nM:30nM, anti-RXR (NR concentration 90 nM, RXRa partner concentration 30 nM)", "PBM binding z-score": 5.98}
{"Sequence code": "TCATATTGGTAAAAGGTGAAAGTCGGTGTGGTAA", "Assay target": "PPARg:RXRa 90nM:30nM, anti-RXR (NR concentration 90 nM, RXRa partner concentration 30 nM)", "PBM binding z-score": 6.18}
{"Sequence code": "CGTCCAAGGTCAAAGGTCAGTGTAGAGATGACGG", "Assay target": "PPARg:RXRa 90nM:30nM, anti-RXR (NR concentration 90 nM, RXRa partner concentration 30 nM)", "PBM binding z-score": 9.69}
{"Sequence code": "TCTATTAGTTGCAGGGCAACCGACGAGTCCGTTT", "Assay target": "PPARg:RXRa 90nM:30nM, anti-RXR (NR concentration 90 nM, RXRa partner concentration 30 nM)", "PBM binding z-score": 2.38}
{"Sequence code": "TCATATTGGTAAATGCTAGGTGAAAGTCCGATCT", "Assay target": "PPARg:RXRa 90nM:30nM, anti-RXR (NR concentration 90 nM, RXRa partner concentration 30 nM)", "PBM binding z-score": 2.76}
{"Sequence code": "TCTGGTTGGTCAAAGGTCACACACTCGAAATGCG", "Assay target": "PPARg:RXRa 90nM:30nM, anti-RXR (NR concentration 90 nM, RXRa partner concentration 30 nM)", "PBM binding z-score": 10.5}
{"Sequence code": "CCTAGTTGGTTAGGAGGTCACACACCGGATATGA", "Assay target": "PPARg:RXRa 90nM:30nM, anti-RXR (NR concentration 90 nM, RXRa partner concentration 30 nM)", "PBM binding z-score": 2.81}
{"Sequence code": "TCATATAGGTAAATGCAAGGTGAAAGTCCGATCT", "Assay target": "PPARg:RXRa 90nM:30nM, anti-RXR (NR concentration 90 nM, RXRa partner concentration 30 nM)", "PBM binding z-score": 3.47}
{"Sequence code": "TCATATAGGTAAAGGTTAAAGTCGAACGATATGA", "Assay target": "PPARg:RXRa 90nM:30nM, anti-RXR (NR concentration 90 nM, RXRa partner concentration 30 nM)", "PBM binding z-score": 5.73}
{"Sequence code": "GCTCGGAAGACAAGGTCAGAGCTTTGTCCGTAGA", "Assay target": "PPARg:RXRa 90nM:30nM, anti-RXR (NR concentration 90 nM, RXRa partner concentration 30 nM)", "PBM binding z-score": 0.239}
{"Sequence code": "ACTTTTAGTTGAGACGAGGGCAACCGATAGGTTG", "Assay target": "PPARg:RXRa 90nM:30nM, anti-RXR (NR concentration 90 nM, RXRa partner concentration 30 nM)", "PBM binding z-score": 0.332}
{"Sequence code": "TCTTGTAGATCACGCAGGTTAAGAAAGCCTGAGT", "Assay target": "PPARg:RXRa 90nM:30nM, anti-RXR (NR concentration 90 nM, RXRa partner concentration 30 nM)", "PBM binding z-score": 1.89}
{"Sequence code": "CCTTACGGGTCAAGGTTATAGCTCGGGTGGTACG", "Assay target": "PPARg:RXRa 90nM:30nM, anti-RXR (NR concentration 90 nM, RXRa partner concentration 30 nM)", "PBM binding z-score": 3.44}
{"Sequence code": "ACTATTAGTGGAGACGAGGGCAACCGATAGGTTG", "Assay target": "PPARg:RXRa 90nM:30nM, anti-RXR (NR concentration 90 nM, RXRa partner concentration 30 nM)", "PBM binding z-score": 0.232}
{"Sequence code": "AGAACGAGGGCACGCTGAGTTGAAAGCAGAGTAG", "Assay target": "PPARg:RXRa 90nM:30nM, anti-RXR (NR concentration 90 nM, RXRa partner concentration 30 nM)", "PBM binding z-score": 1.03}
{"Sequence code": "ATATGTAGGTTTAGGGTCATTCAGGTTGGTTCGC", "Assay target": "PPARg:RXRa 90nM:30nM, anti-RXR (NR concentration 90 nM, RXRa partner concentration 30 nM)", "PBM binding z-score": 6.7}
{"Sequence code": "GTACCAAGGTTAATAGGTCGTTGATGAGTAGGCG", "Assay target": "PPARg:RXRa 90nM:30nM, anti-RXR (NR concentration 90 nM, RXRa partner concentration 30 nM)", "PBM binding z-score": 2.5}
{"Sequence code": "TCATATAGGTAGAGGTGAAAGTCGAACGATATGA", "Assay target": "PPARg:RXRa 90nM:30nM, anti-RXR (NR concentration 90 nM, RXRa partner concentration 30 nM)", "PBM binding z-score": 3.28}
{"Sequence code": "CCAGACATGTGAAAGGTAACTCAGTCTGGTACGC", "Assay target": "PPARg:RXRa 90nM:30nM, anti-RXR (NR concentration 90 nM, RXRa partner concentration 30 nM)", "PBM binding z-score": 2.1}
{"Sequence code": "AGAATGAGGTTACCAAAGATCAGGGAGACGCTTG", "Assay target": "PPARg:RXRa 90nM:30nM, anti-RXR (NR concentration 90 nM, RXRa partner concentration 30 nM)", "PBM binding z-score": 2.15}
{"Sequence code": "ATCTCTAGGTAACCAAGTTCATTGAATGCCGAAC", "Assay target": "PPARg:RXRa 90nM:30nM, anti-RXR (NR concentration 90 nM, RXRa partner concentration 30 nM)", "PBM binding z-score": 0.937}
{"Sequence code": "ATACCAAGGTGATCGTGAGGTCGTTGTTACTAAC", "Assay target": "PPARg:RXRa 90nM:30nM, anti-RXR (NR concentration 90 nM, RXRa partner concentration 30 nM)", "PBM binding z-score": 0.535}
{"Sequence code": "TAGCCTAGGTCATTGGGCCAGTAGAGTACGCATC", "Assay target": "PPARg:RXRa 90nM:30nM, anti-RXR (NR concentration 90 nM, RXRa partner concentration 30 nM)", "PBM binding z-score": 2.76}
{"Sequence code": "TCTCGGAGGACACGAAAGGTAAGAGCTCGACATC", "Assay target": "PPARg:RXRa 90nM:30nM, anti-RXR (NR concentration 90 nM, RXRa partner concentration 30 nM)", "PBM binding z-score": 1.28}
{"Sequence code": "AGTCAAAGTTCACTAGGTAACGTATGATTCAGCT", "Assay target": "PPARg:RXRa 90nM:30nM, anti-RXR (NR concentration 90 nM, RXRa partner concentration 30 nM)", "PBM binding z-score": 5.54}
{"Sequence code": "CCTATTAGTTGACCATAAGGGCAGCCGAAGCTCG", "Assay target": "PPARg:RXRa 90nM:30nM, anti-RXR (NR concentration 90 nM, RXRa partner concentration 30 nM)", "PBM binding z-score": -0.0917}
{"Sequence code": "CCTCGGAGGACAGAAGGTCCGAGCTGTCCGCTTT", "Assay target": "PPARg:RXRa 90nM:30nM, anti-RXR (NR concentration 90 nM, RXRa partner concentration 30 nM)", "PBM binding z-score": -1.44}

// provenance: the supplement of paper PMC6555819
